Quick record: pKi, porcine pepsin (Sus scrofa, UniProt P00791).
One number for each entry, as −log10 of the molar value.

CC(C)CN(C[C@@H](O)[C@H](Cc1ccccc1)NC(=O)O[C@H]1CCOC1)S(=O)(=O)c1ccc(N)cc1 [APV, Amprenavir]    6.52

// next entry
**Q:** Return the recorded pKi value; entry: CC(C)CN(C[C@@H](O)[C@H](Cc1ccccc1)NC(=O)O[C@H]1CO[C@H]2OCC[C@H]21)S(=O)(=O)c1ccc(N)cc1 [DRV, Darunavir]
**A:** 5.67

---

- system: UniProt P00791
- assay-comment: Kinetic inhibition of pepsin
- Assay type: biochemical
- condition-description: pH 3, read-out: Inhibition of pepsin under the screening conditions
property-label: inhibition at 16 µM

Provide each entry's inhibition at 16 µM from the list below.
1. CC(C)CN(C[C@@H](O)[C@H](Cc1ccccc1)NC(=O)O[C@H]1CCOC1)S(=O)(=O)c1ccc(N)cc1
2. Cc1cccc(C)c1OCC(=O)N[C@@H](Cc1ccccc1)[C@@H](O)C[C@H](Cc1ccccc1)NC(=O)[C@H](C(C)C)N1CCCNC1=O
3. CC(C)(C)NC(=O)[C@@H]1C[C@@H]2CCCC[C@@H]2CN1C[C@@H](O)[C@H](Cc1ccccc1)NC(=O)[C@H](CC(N)=O)NC(=O)c1ccc2ccccc2n1
4. Cc1c(O)cccc1C(=O)N[C@@H](CSc1ccccc1)[C@H](O)CN1C[C@H]2CCCC[C@H]2C[C@H]1C(=O)NC(C)(C)C
5. CCC[C@@]1(CCc2ccccc2)CC(O)=C([C@H](CC)c2cccc(NS(=O)(=O)c3ccc(C(F)(F)F)cn3)c2)C(=O)O1

**A:**
1: 75 to 95%; 2: ≤ 50%; 3: ≤ 50%; 4: ≤ 50%; 5: ≤ 50%

**Q:** Return the recorded inhibition at 16 µM value; entry: CC(C)c1nc(CN(C)C(=O)N[C@H](C(=O)N[C@@H](Cc2ccccc2)C[C@H](O)[C@H](Cc2ccccc2)NC(=O)OCc2cncs2)C(C)C)cs1
**A:** 75 to 95%
